Please respond with reported OD450 nm for every item in the list.
target: cynomolgus IL-13 (purchased from sino biological) (cynomolgus) (UniProt Q0PW92); test: ELISA, cynomolgus IL-13; antibody at 2.67 nM
Sequence (Q0PW92 entry or part of it): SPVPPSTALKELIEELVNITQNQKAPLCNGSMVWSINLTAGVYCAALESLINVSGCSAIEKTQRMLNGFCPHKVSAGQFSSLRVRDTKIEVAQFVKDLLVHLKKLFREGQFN
Enter a number only.

Exam item: Identify measured OD450 nm associated with c29D9H8 (mouse-human chimeric IL-13 antibody) (antibody, V domains shown) VH: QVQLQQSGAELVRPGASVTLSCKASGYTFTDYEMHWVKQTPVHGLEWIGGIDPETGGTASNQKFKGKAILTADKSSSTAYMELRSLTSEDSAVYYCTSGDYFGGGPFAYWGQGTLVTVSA VL: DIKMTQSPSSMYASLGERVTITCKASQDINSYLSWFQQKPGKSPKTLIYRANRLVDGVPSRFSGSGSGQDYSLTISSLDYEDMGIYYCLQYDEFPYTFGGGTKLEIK
Marked response: 3.2

Exam item: Return reported OD450 nm. Input binder: 28A2E11 (lead antibody, mouse hybridoma) (antibody, V domains shown, Mouse monoclonal antibody purified from hybridoma supernatant on Protein G) VH: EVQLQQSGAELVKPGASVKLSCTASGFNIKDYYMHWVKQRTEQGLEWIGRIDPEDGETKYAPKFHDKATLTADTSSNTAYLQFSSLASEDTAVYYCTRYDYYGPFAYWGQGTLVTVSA VL: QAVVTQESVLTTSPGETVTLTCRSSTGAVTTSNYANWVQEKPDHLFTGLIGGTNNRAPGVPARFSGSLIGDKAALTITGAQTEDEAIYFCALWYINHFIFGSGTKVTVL
Marked response: 1.35
